Tested on: MCF7 human breast cancer cell line
experiment.notes: MTT assay of MCF7 cells
Type: cell-based
experimental.setup: Homo sapiens, media containing 1% fetal bovine serum
Experimental: MDA-MB-231 and MCF7 cells were plated at a density of 8×10^3 cells/well and 10^4 cells/well in 96-well culture plates, respectively. The compounds were fed in serum free media containing 5% and 1% fetal bovine serum for MDA-MB-231 and MCF7 cells, respectively.
# IC50 listing for each entry below

substance.smiles	IC50
CC(C)=CCC/C(C)=C/CC/C(C)=C/CC[C@]1(C)CCc2c3c(c(C)c(C)c2O1)OCN(CCCCCCCCCCCCO)C3	> 20 µM
CC(C)=CCC/C(C)=C/CC/C(C)=C/CC[C@]1(C)CCc2c3c(cc(C)c2O1)OCN(CCCCO)C3	16.3 µM
CC(C)=CCC/C(C)=C/CC/C(C)=C/CC[C@]1(C)CCc2c3c(cc(C)c2O1)OCN(CCCCCCCCCCCCO)C3	> 20 µM
CC(C)=CCC/C(C)=C/CC/C(C)=C/CC[C@]1(C)CCc2c3c(cc(C)c2O1)OCN(CCCCCCCCO)C3	> 20 µM
CC(C)=CCC/C(C)=C/CC/C(C)=C/CC[C@]1(C)CCc2c3c(c(C)c(C)c2O1)OCN(Cc1ccccc1)C3	> 20 µM
CC(C)=CCC/C(C)=C/CC/C(C)=C/CC[C@]1(C)CCc2c3c(c(C)c(C)c2O1)OCN(CCCCO)C3	> 20 µM
